Heads up, these molecules all have Ki values measured for Cannabinoid receptor 2 (Homo sapiens).
Endpoint: Ki (µM)

[
  {
    "Molecule": "CCCCCC[C@H](CC=CCCCCCCCC(=O)NCc1ccc(O)c(OC)c1)OC(=O)Cc1ccccc1 [PhAR]",
    "Unit symbol": "µM",
    "Reported relation": "=",
    "Value measured": 0.3
  },
  {
    "Molecule": "CCCCCC[C@@H](O)CC=CCCCCCCCC(=O)NCc1ccc(O)c(OC)c1 [Rinvanil]",
    "Unit symbol": "µM",
    "Reported relation": ">",
    "Value measured": 10
  },
  {
    "Molecule": "CCCCCC[C@H](CC=CCCCCCCCC(=O)NCc1cc(I)c(O)c(OC)c1)OC(=O)Cc1ccccc1 [PhAR, 5-I]",
    "Unit symbol": "µM",
    "Reported relation": "=",
    "Value measured": 1.5
  },
  {
    "Molecule": "CCCCCC[C@H](CC=CCCCCCCCC(=O)NCc1ccc(O)c(OC)c1)OC(C)=O [Rinvanil, Acetyl]",
    "Unit symbol": "µM",
    "Reported relation": ">",
    "Value measured": 10
  },
  {
    "Molecule": "CCCCCC[C@H](CC=CCCCCCCCC(=O)NCc1ccc(O)c(OC)c1)OC(=O)c1ccccc1 [Rinvanil, Benzoil]",
    "Unit symbol": "µM",
    "Reported relation": "=",
    "Value measured": 1.4
  },
  {
    "Molecule": "CCCCCCCCC=CCCCCCCCC(=O)NCc1ccc(O)c(OC)c1 [CAS_58493-49-5]",
    "Unit symbol": "µM",
    "Reported relation": ">",
    "Value measured": 10
  }
]

###

pKi: −log10 of the molar value.
Heads up, these molecules all have pKi values measured for Cannabinoid receptor 1 (Homo sapiens).
Endpoint: pKi

[
  {
    "Molecule": "CCCCCC[C@H](CC=CCCCCCCCC(=O)NCc1ccc(O)c(OC)c1)OC(=O)c1ccccc1",
    "Reported relation": "=",
    "Value measured": 5.89
  },
  {
    "Molecule": "CCCCCC[C@H](CC=CCCCCCCCC(=O)NCc1cc(I)c(O)c(OC)c1)OC(=O)Cc1ccccc1",
    "Reported relation": "=",
    "Value measured": 5.30
  },
  {
    "Molecule": "CCCCCC[C@H](CC=CCCCCCCCC(=O)NCc1ccc(O)c(OC)c1)OC(=O)Cc1ccccc1",
    "Reported relation": "=",
    "Value measured": 5.66
  },
  {
    "Molecule": "CCCCCCC(CCCCCCCCCCC(=O)NCc1ccc(O)c(OC)c1)OC(=O)Cc1ccccc1 (stereo not drawn) [PhAR, Di-hydro]",
    "Reported relation": "=",
    "Value measured": 5.30
  },
  {
    "Molecule": "CCCCCC[C@H](CC=CCCCCCCCC(=O)NCc1ccc(O)c(OC)c1)OC(C)=O",
    "Reported relation": "<",
    "Value measured": 5.00
  },
  {
    "Molecule": "CCCCCC[C@@H](O)CC=CCCCCCCCC(=O)NCc1ccc(O)c(OC)c1",
    "Reported relation": "<",
    "Value measured": 5.00
  },
  {
    "Molecule": "CCCCCCC(C/C=C/CCCCCCCC(=O)NCc1ccc(O)c(OC)c1)OC(=O)Cc1ccccc1 (stereo not drawn)",
    "Reported relation": "=",
    "Value measured": 5.62
  },
  {
    "Molecule": "CCCCCC[C@H](CC=CCCCCCCCC(=O)NCc1cc(OC)c(O)cc1I)OC(=O)Cc1ccccc1",
    "Reported relation": "=",
    "Value measured": 5.60
  }
]

###

- Target under test: Cannabinoid receptor 2 (Homo sapiens, UniProt P34972)
- Sequence (P34972 whole entry): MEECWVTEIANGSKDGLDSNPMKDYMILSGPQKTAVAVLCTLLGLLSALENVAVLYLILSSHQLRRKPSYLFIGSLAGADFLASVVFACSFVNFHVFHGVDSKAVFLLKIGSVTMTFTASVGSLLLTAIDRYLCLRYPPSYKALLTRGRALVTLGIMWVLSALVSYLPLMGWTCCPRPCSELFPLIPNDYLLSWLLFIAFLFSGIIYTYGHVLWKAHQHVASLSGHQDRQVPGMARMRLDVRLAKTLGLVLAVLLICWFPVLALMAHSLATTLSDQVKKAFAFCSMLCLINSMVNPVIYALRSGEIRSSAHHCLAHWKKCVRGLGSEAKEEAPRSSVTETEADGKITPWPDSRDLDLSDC
pKi: −log10 of the molar value.
Parameter: pKi. Scope: all listed entries.

[
  {
    "Molecule": "CCCCCCC(C/C=C/CCCCCCCC(=O)NCc1ccc(O)c(OC)c1)OC(=O)Cc1ccccc1 (centres undefined)",
    "Reported relation": "=",
    "pKi": 6.40
  },
  {
    "Molecule": "COc1cc(CNC(=O)CCCCC=CC(C)C)ccc1O",
    "Reported relation": "<",
    "pKi": 5.00
  },
  {
    "Molecule": "CCCCCCC(CCCCCCCCCCC(=O)NCc1ccc(O)c(OC)c1)OC(=O)Cc1ccccc1 (centres undefined) [PhAR, Di-hydro]",
    "Reported relation": "=",
    "pKi": 5.96
  },
  {
    "Molecule": "CCCCCC[C@H](CC=CCCCCCCCC(=O)NCc1cc(OC)c(O)cc1I)OC(=O)Cc1ccccc1",
    "Reported relation": "=",
    "pKi": 5.66
  }
]
